Molecular target: Pyruvate kinase PKM (Homo sapiens)
Experiment: qHTS Assay for Activators of Human Muscle Pyruvate Kinase (AID 954)
Settings: purified human muscle pyruvate kinase, luciferase-coupled luminescence, 1 h; series mostly up to 57.5 µM
The source made the active and inactive calls. The call rests on the fitted dose curve; in most records, active means well fitted curve in the direction sought with a large enough effect (not every such curve was filed as active); inconclusive means small, poorly fitted or top-dose-only effect, or effect the other way, or another doubt; inactive means no such curve, though single readings can be large or run the other way.
MEASURE_NAME: outcome

Below, 8 molecules whose answers are already recorded.
CHEM_SMILES | MEASURED_RESULT
CNC(=O)Oc1ccc2c(c1)[C@@]1(C)CCN(C)[C@@H]1N2C | inactive
CCOC(=O)C1=C(C)NC(C)=C(C(=O)OC)[C@H]1c1cccc([N+](=O)[O-])c1 | inactive
C#C[C@]1(O)CC[C@H]2[C@H]3CCC4=Cc5oncc5C[C@]4(C)[C@@H]3CC[C@]21C | inactive
N[C@@H](CO)C(=O)O | inactive
N[C@]1(C(=O)O)CCc2cc(C(=O)O)ccc21 | inactive
CC(C)=CCC/C(C)=C/CC/C(C)=C/CSc1ccccc1C(=O)O | inactive
Cn1cnc2c(NC3CCCC3)ncnc21 | inactive
O=C(O)c1cc(=O)c2ccc(Cl)cc2[nH]1 | inactive

Fill in the blank: the reported outcome of CC#C[C@]1(O)CC[C@H]2[C@@H]3CCC4=CC(=O)CCC4=C3[C@H](c3ccc(N(C)C)cc3)C[C@@]21C is ____.
inactive

Try this molecule too: Cc1cccc(C)c1NC(=O)C[N+](C)(C)C
inactive

Try this molecule too: CC(C)NC[C@H](O)c1ccc(NS(C)(=O)=O)cc1
inactive

Try this molecule too: CCCCCCCCCCCCCCCC(=O)O[C@H](CC(=O)O)C[N+](C)(C)C
inactive

Try this molecule too: COc1ccc(CCN(C)CCC[C@@](C#N)(c2ccc(OC)c(OC)c2)C(C)C)cc1OC
inactive

Try this molecule too: NC(N)=NN=Cc1c(Cl)cccc1Cl
inactive

Try this molecule too: COc1ccccc1N1CCN(C[C@@H](O)COc2cccc3ccccc23)CC1
inactive

Try this molecule too: CC(C)(C)c1ccc(S(=O)(=O)/C=C\C#N)cc1
inactive

Try this molecule too: N#C/C(=C\c1ccc(O)c(O)c1)C(=O)Nc1ccccc1
inactive

Try this molecule too: COc1ccccc1NC(=O)Nc1nc(-c2cccnc2)nc2ccccc12
inactive

Try this molecule too: CCCCOc1cc(C[C@@H]2CNC(=O)N2)ccc1OC
inactive

Try this molecule too: C=C[C@H](N)CCC(=O)O
inactive

Try this molecule too: COC(=O)c1c(-c2cc(OC)c(OC)c(OC)c2)c2ccnc(OCc3ncccn3)c2c(=O)n1Cc1ccnc(C)c1
inactive

Try this molecule too: CC#CCOC(=O)c1c(C)nc2sc3c(c2c1N)CC[C@@H](O)C3
inactive

Try this molecule too: CCCn1c(=O)c2[nH]c(-c3ccc(OCC(=O)Nc4ccc(C#N)cc4)cc3)nc2n(CCC)c1=O
inactive
